assay: Drug metabolism in human cryopreserved hepatocytes assessed as DPH-124921 metabolite level at 25 uM after 3 hrs by LC-MS/MS analysis; format: ADME, cell-based, Hepatocyte

- chemical_string: "COc1ccc(-c2c(C)nn3c(O)nc(C)nc23)c(C)n1"
  Drug metabolism: "metabolite_detected"
- chemical_string: "CC[C@@H](C)Nc1nc(C)nc2c(-c3ccc(OC)nc3C)c(C)nn12"
  Drug metabolism: "metabolite_detected"
- chemical_string: "COc1ccc(-c2c(C)nn3c(N)nc(C)nc23)c(C)n1"
  Drug metabolism: "metabolite_detected"
- chemical_string: "CC[C@@H](C)Nc1nc(C)nc2c(-c3ccc(O)nc3C)c(C)nn12"
  Drug metabolism: "metabolite_detected"

----------
assay: Tmax in chimpanzee at 1 mg/kg, po; format: ADME, organism-based, Pan troglodytes; design: dose 1 mg/kg, route oral; settings: in vivo
property_name: Tmax (h)
Enter your answer as a number in h; do not include the unit.

Please report the recorded Tmax for CC[C@@H](C)Nc1nc(C)nc2c(-c3ccc(OC)nc3C)c(C)nn12 [PEXACERFONT] . 2

----------
test: Oral bioavailability in beagle dog at 5 mg/kg; format: ADME, organism-based, Canis lupus familiaris; settings: in vivo
property_name: bioavailability (%)
Enter your answer as a number in %; do not include the unit.

Please report the recorded bioavailability for `CC[C@@H](C)Nc1nc(C)nc2c(-c3ccc(OC)nc3C)c(C)nn12` . 58.8

----------
assay: AUC (infinity) in beagle dog at 5 mg/kg, po; assay type: ADME, organism-based, Canis lupus familiaris; parameters: time infinity, dose 5 mg/kg, route oral; settings: plasma
property_name: AUC(0-inf) (µM·h)
Enter your answer as a number in µM·h; do not include the unit.

Please report the recorded AUC(0-inf) for `CC[C@@H](C)Nc1nc(C)nc2c(-c3ccc(OC)nc3C)c(C)nn12` . 13

----------
experiment: Drug metabolism in mouse liver microsomes assessed as BMS-572273 metabolite level at 100 uM after 1 hr in presence of NADPH; format: ADME

- compound: "CC[C@@H](C)Nc1nc(C)nc2c(-c3ccc(OC)nc3C)c(C)nn12 [PEXACERFONT]"
  Drug metabolism: "metabolite_detected"
- compound: "COc1ccc(-c2c(C)nn3c(N)nc(C)nc23)c(C)n1"
  Drug metabolism: "metabolite_detected"
- compound: "COc1ccc(-c2c(C)nn3c(O)nc(C)nc23)c(C)n1"
  Drug metabolism: "metabolite_detected"
- compound: "CC[C@@H](C)Nc1nc(C)nc2c(-c3ccc(O)nc3C)c(C)nn12"
  Drug metabolism: "metabolite_detected"

----------
assay: Protein binding in rat serum after 3 hrs by equilibrium dialysis; type: ADME, cell-free; conditions: read-out: PB (converted)
property_name: fraction unbound at 3 h
API note: the answer field is a bare number with no unit suffix.

Please report the recorded fraction unbound at 3 h for `CC[C@@H](C)Nc1nc(C)nc2c(-c3ccc(OC)nc3C)c(C)nn12` . 0.064

----------
test: Oral bioavailability in chimpanzee at 1 mg/kg; settings: Pan troglodytes, in vivo
property_name: bioavailability (%)
Enter your answer as a number in %; do not include the unit.

Please report the recorded bioavailability for CC[C@@H](C)Nc1nc(C)nc2c(-c3ccc(OC)nc3C)c(C)nn12 [PEXACERFONT] . 58.5

----------
assay: Drug metabolism in cynomolgus monkey cryopreserved hepatocytes assessed as decrease of compound level at 25 uM after 3 hrs by HPLC analysis; format: ADME, cell-based, Macaca fascicularis, Hepatocyte; conditions: read-out: Drug metabolism
property_name: metabolised at 3 h, 25 µM (%)
Enter your answer as a number in %; do not include the unit.

Please report the recorded metabolised at 3 h, 25 µM for `CC[C@@H](C)Nc1nc(C)nc2c(-c3ccc(OC)nc3C)c(C)nn12` . 83

----------
test: Protein binding in dog serum after 3 hrs by equilibrium dialysis; type: ADME, cell-free, Canis lupus familiaris; conditions: read-out: PB (converted)
property_name: fraction unbound at 3 h
API note: the answer field is a bare number with no unit suffix.

Please report the recorded fraction unbound at 3 h for `CC[C@@H](C)Nc1nc(C)nc2c(-c3ccc(OC)nc3C)c(C)nn12` . 0.048

----------
assay: Terminal half life in Sprague-Dawley rat at 5 mg/kg, po; type: ADME, organism-based; parameters: dose 5 mg/kg, route oral; details: in vivo, read-out: beta t1/2 (converted)
property_name: half-life (h)
Enter your answer as a number in h; do not include the unit.

Please report the recorded half-life for CC[C@@H](C)Nc1nc(C)nc2c(-c3ccc(OC)nc3C)c(C)nn12 [PEXACERFONT] . 13.8

----------
assay: Retention time of the compound by HPLC method; format: physicochemical
Kindly state Retention_time for each of the entries shown.
Enter your answer as a number in min; do not include the unit.

Please report the recorded Retention_time for `CC[C@@H](C)Nc1nc(C)nc2c(-c3ccc(O)nc3C)c(C)nn12` . 32.1

Please report the recorded Retention_time for `COc1ccc(-c2c(C)nn3c(O)nc(C)nc23)c(C)n1` . 25.6

Please report the recorded Retention_time for `COc1ccc(-c2c(C)nn3c(N)nc(C)nc23)c(C)n1` . 28.5

Please report the recorded Retention_time for `CC[C@@H](C)Nc1nc(C)nc2c(-c3ccc(OC)nc3C)c(C)nn12` . 52.2

----------
assay: Tmax in beagle dog at 5 mg/kg, po; assay type: ADME, organism-based, Canis lupus familiaris; parameters: dose 5 mg/kg, route oral; details: in vivo
property_name: Tmax (min)
Enter your answer as a number in min; do not include the unit.

Please report the recorded Tmax for `CC[C@@H](C)Nc1nc(C)nc2c(-c3ccc(OC)nc3C)c(C)nn12` . 45

----------
assay: AUC (infinity) in chimpanzee at 1 mg/kg, po; type: ADME, organism-based, Pan troglodytes; design: dose 1 mg/kg, route oral, time infinity; settings: plasma
property_name: AUC(0-inf)

Please report the recorded AUC(0-inf) for `CC[C@@H](C)Nc1nc(C)nc2c(-c3ccc(OC)nc3C)c(C)nn12` . 13.9 µM·h

----------
experiment: Terminal half life in beagle dog at 1 mg/kg, iv; format: ADME, organism-based, Canis lupus familiaris; parameters: dose 1 mg/kg, route intravenous; settings: in vivo, read-out: beta t1/2 (converted)
property_name: half-life (h)
Enter your answer as a number in h; do not include the unit.

Please report the recorded half-life for CC[C@@H](C)Nc1nc(C)nc2c(-c3ccc(OC)nc3C)c(C)nn12 [PEXACERFONT] . 43.9

----------
test: Drug metabolism in mouse hepatocytes assessed as DPH-123554 metabolite level at 25 uM after 3 hrs by LC-MS/MS analysis; type: ADME, cell-based, Hepatocyte
property_name: Drug metabolism

- compound: "CC[C@@H](C)Nc1nc(C)nc2c(-c3ccc(O)nc3C)c(C)nn12"
  property_name: "Drug metabolism"
  experimental_result: "metabolite_detected"
- compound: "COc1ccc(-c2c(C)nn3c(O)nc(C)nc23)c(C)n1"
  property_name: "Drug metabolism"
  experimental_result: "metabolite_detected"
- compound: "COc1ccc(-c2c(C)nn3c(N)nc(C)nc23)c(C)n1"
  property_name: "Drug metabolism"
  experimental_result: "metabolite_detected"
- compound: "CC[C@@H](C)Nc1nc(C)nc2c(-c3ccc(OC)nc3C)c(C)nn12 [PEXACERFONT]"
  property_name: "Drug metabolism"
  experimental_result: "metabolite_detected"

----------
experiment: Detection of compound level in beagle dog hepatocytes treated with 25 uM of BMS-562086 after 3 hrs by LC-MS/MS analysis; type: ADME, cell-based, Canis lupus familiaris, Hepatocyte

- compound: "COc1ccc(-c2c(C)nn3c(O)nc(C)nc23)c(C)n1"
  Drug metabolism: "metabolite_detected"
- compound: "CC[C@@H](C)Nc1nc(C)nc2c(-c3ccc(O)nc3C)c(C)nn12"
  Drug metabolism: "metabolite_detected"
- compound: "CC[C@@H](C)Nc1nc(C)nc2c(-c3ccc(OC)nc3C)c(C)nn12 [PEXACERFONT]"
  Drug metabolism: "metabolite_detected"
- compound: "COc1ccc(-c2c(C)nn3c(N)nc(C)nc23)c(C)n1"
  Drug metabolism: "metabolite_detected"

----------
assay: Cmax in chimpanzee at 1 mg/kg, po; type: ADME, organism-based, Pan troglodytes; parameters: dose 1 mg/kg, route oral; conditions: in vivo
property_name: Cmax (nM)
Enter your answer as a number in nM; do not include the unit.

Please report the recorded Cmax for CC[C@@H](C)Nc1nc(C)nc2c(-c3ccc(OC)nc3C)c(C)nn12 [PEXACERFONT] . 1070

----------
assay: Drug metabolism in beagle dog hepatocytes assessed as DPH-123554 metabolite level at 25 uM after 3 hrs by LC-MS/MS analysis; assay type: ADME, cell-based, Canis lupus familiaris, Hepatocyte

- chemical_string: "CC[C@@H](C)Nc1nc(C)nc2c(-c3ccc(O)nc3C)c(C)nn12"
  Drug metabolism: "metabolite_detected"
- chemical_string: "COc1ccc(-c2c(C)nn3c(N)nc(C)nc23)c(C)n1"
  Drug metabolism: "metabolite_detected"
- chemical_string: "CC[C@@H](C)Nc1nc(C)nc2c(-c3ccc(OC)nc3C)c(C)nn12"
  Drug metabolism: "metabolite_detected"
- chemical_string: "COc1ccc(-c2c(C)nn3c(O)nc(C)nc23)c(C)n1"
  Drug metabolism: "metabolite_detected"
